# glycan array binding signal (z-score) listing for each entry below
Target: GlcNAc(b1-2)[GlcNAc(b1-4)]Man(a1-3)[GlcNAc(b1-4)][GlcNAc(b1-2)[GlcNAc(b1-6)]Man(a1-6)]Man(b1-4)GlcNAc(b1-4)[Fuc(a1-6)]GlcNAc
Assay: glycan array binding signal (z-score within array); higher = stronger binding
Details: glycan notation: IUPAC condensed, linker removed
Shown is part of a subset that was picked to be rich in the strongest signals.
endpoint: glycan array binding signal (z-score)

binder="CBM13 2a (Mycobacterium tuberculosum), P64849 (protein) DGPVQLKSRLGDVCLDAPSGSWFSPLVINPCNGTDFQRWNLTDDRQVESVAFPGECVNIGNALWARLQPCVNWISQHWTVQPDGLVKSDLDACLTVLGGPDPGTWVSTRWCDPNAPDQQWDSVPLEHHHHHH" measured_result=-0.406
binder="Vd2LysM (Verticillium dahliae) (protein) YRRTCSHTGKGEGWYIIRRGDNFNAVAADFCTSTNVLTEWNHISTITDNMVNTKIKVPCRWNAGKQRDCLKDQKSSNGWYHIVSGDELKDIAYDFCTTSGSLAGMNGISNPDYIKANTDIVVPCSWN" measured_result=3.56
binder="Epa3 (Candida glabrata), Q6VBI8_CANGB (protein) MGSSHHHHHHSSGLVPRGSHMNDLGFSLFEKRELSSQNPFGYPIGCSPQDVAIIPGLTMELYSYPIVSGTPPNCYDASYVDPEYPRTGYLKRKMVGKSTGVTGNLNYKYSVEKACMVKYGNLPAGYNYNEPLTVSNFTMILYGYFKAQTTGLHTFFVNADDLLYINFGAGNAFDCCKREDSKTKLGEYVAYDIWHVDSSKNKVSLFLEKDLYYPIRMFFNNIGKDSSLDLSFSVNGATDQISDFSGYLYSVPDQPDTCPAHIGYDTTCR" measured_result=-0.314
binder="PNGase F (Flavobacterium meningosepticum) (protein) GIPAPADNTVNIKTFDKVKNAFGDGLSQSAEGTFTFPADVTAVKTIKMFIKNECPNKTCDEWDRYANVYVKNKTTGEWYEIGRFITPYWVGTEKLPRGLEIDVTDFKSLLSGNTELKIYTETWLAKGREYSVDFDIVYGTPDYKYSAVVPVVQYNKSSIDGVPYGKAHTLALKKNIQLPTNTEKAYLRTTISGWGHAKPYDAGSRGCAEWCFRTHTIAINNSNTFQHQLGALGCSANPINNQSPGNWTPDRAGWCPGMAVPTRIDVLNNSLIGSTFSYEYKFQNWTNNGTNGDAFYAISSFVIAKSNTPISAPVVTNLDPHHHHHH" measured_result=-0.395
binder="FimA-N2 (Actinomyces oris) (protein) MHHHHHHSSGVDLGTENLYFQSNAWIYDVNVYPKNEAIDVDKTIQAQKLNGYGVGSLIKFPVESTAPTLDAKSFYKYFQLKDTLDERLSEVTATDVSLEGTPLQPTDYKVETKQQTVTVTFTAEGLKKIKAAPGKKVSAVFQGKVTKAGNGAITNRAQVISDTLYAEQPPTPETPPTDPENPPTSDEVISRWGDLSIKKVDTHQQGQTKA" measured_result=-0.355
binder="FimA-N3 (Actinomyces oris) (protein) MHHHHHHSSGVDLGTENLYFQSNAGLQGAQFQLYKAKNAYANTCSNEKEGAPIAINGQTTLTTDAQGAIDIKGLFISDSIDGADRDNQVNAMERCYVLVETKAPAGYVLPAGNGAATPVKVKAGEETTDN" measured_result=-0.394
binder="SJCP3842 (Schistosoma japonicum) (protein) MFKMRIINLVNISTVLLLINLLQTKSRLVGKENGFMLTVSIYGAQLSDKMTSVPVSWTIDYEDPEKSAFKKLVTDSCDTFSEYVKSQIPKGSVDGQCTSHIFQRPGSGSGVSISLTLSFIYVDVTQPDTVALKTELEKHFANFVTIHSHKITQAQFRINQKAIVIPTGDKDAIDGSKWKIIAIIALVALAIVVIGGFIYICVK" measured_result=0.364
binder="Epa11 (Candida glabrata) (protein) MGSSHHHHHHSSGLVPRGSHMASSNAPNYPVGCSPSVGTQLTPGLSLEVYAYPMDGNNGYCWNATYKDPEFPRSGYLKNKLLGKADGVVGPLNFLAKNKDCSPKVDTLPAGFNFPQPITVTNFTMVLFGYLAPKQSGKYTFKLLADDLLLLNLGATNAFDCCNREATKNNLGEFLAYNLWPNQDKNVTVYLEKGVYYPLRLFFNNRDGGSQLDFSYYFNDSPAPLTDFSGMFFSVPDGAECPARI" measured_result=2.33
binder="Na-CTL-1 (Necator americanus) (protein) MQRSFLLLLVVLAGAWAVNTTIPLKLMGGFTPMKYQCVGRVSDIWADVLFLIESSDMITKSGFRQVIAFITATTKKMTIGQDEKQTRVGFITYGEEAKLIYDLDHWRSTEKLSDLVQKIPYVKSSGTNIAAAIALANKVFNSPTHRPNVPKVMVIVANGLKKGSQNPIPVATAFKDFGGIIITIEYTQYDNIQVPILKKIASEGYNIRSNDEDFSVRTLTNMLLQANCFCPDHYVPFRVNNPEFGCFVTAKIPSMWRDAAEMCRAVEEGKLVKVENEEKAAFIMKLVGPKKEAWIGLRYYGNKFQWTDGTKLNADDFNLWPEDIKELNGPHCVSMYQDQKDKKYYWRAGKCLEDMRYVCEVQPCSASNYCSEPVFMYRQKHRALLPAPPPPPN" measured_result=-0.111
binder="Mg3lysM (Mycosphaerella graminicola) (protein) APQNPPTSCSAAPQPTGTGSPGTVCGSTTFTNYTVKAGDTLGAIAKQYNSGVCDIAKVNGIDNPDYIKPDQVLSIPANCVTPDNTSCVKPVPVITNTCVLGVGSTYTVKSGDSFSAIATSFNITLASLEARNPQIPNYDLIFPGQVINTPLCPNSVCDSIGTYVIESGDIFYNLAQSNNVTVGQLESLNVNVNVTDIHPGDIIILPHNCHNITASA" measured_result=-0.113
binder="BabA (Helicobacter pylori), O52269_HELPY (protein) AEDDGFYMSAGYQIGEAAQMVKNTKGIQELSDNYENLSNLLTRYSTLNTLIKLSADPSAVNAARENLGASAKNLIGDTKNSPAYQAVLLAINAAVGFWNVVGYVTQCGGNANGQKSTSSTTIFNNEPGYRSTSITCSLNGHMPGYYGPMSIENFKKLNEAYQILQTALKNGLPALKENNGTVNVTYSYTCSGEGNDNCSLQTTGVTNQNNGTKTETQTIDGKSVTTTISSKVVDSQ" measured_result=-0.373
